System: EKVX NSCLC
assay-procedure: NCI-60 one-dose screen, 48 h
condition: 10 µM unless noted
This is part of a sample that, as a whole, favours compounds with a hit. Of some 83,000 tested, about 20% had one in any assay. Activity calls are given as the source filed them. The calls were made as follows: active = growth percent below 10; inactive = the rest.
A correct response names exactly one class from active, inactive

Consider the following illustrative entries.
molecule	class-label
C=CCNc1ccc2c3c(cccc13)C(=O)N(N1C(=O)c3cccc4cccc(c34)C1=O)C2=O	inactive
CN1CCN(Cc2ccc(NC(=O)c3ccc(C(C)(C)C)c(C#Cc4cnc5cccnn45)c3)cc2C(F)(F)F)CC1	active
O=c1[nH]c2c(ccc3cnccc32)c2c1CCC2	active
COc1ccc(/C=C/c2c(C(=O)/C=C/c3ccc(C(F)(F)F)cc3)c(C)nc3ccccc23)cc1	active
Cn1cc(C(=O)c2nc(-c3cn(C)c4ccc(F)cc34)no2)c2cc(F)ccc21	inactive

Attention now turns to another entry.
INPUT: Called result for O=C(/C=C/c1sc(Cl)nc1Cl)c1ccc(F)cc1
OUTPUT: inactive

====

System: KM12 colon
assay-procedure: NCI-60 one-dose screen, 48 h
condition: 10 µM unless noted
Experimental: Growth inhibition of the KM12 human tumor cell line is measured as a screen for anti-cancer activity. Cells are grown in 96 well plates and exposed to the test compound for 48 hours. Compounds are tested at a single concentration, which is 10^-5 M for most compounds. The reported endpoint is percent growth (GI% or GIPRCNT), where numbers from 0 - 100% represent growth inhibition, and numbers from -100% - 0 represent cell death. For example, a value of 40 represents 60% growth inhibition. […]
About 83,000 compounds went through this panel and 20% of them were active in at least one assay; those are over-represented in the sample as a whole. The source made the active and inactive calls. The calls were made as follows: active = growth percent below 10; inactive = the rest.
Bench note: report the call from active, inactive

Worked examples, 8 compounds total:
compound	class-label
CCOC(=O)/C=C1\S/C(=N\Nc2ccc([N+](=O)[O-])cc2[N+](=O)[O-])N(Cc2ccccc2)C1=O	inactive
C#Cc1cccc(NC(=O)c2ccc(NC(=O)C=C)cc2)c1	inactive
CCOC(=O)c1sc2ncc(-c3ccc(OC)cc3)n2c1C	inactive
C/C(=N/NC(N)=S)c1sc(Nc2cccc(Cl)c2)nc1C	inactive
CCC(C)(c1cc(C(C)(C)C)c(O)c(C(C)(C)C)c1)c1cc(C(C)(C)C)c(O)c(C(C)(C)C)c1	inactive
CCCCC[C@H](O)C/C=C1/C(=O)C=C[C@@H]1C/C=C\CCCC(=O)O	inactive
O=C(/C=C/c1ccc([N+](=O)[O-])o1)NNC(=O)c1cc2ccccc2cc1O	inactive
Cc1cccc2c3c(sc12)C(c1ccc(F)cc1)C(C#N)=C(N)O3 (centres undefined)	active

INPUT: Tell me the recorded outcome of this test for COc1ccc(C(=S)N2CCN(c3cccc(C)c3)CC2)cc1OC .
OUTPUT: inactive

INPUT: Test call, this compound: Cc1cc2nc3ccc(N=Nc4ccc(N(C)C)cc4)cc3n(-c3ccccc3)c-2cc1=N
OUTPUT: active

====

Test system: SW-620 colon
assay-procedure: NCI-60 one-dose screen, 48 h
condition: 10 µM unless noted
Compounds without any hit were thinned out: in the full panel of roughly 83,000, 20% have a hit. Active and inactive are the calls of the source. Rule for the calls: active = growth percent below 10; inactive = the rest.
Result category, one only: active, inactive

compound	class-label
CCN1C(=O)N(CC)C2Nn3c(s/c(=C4\C(=O)N(CC(C)C)c5ccccc54)c3=O)=NC21 (stereo not given)	inactive
COc1cc(C2CC(c3ccc(SC)cc3)=NN2C(C)=O)cc(OC)c1OC (stereo not given)	inactive
C[C@]12CC[C@@H]3c4cc(OC(F)F)c(OS(N)(=O)=O)cc4CC[C@H]3[C@@H]1CC[C@@H]2OS(N)(=O)=O	inactive
O=c1c2cc(F)cc(Cl)c2sc2c(NCCCNCCO)nc3ccccc3c12	active
S=C(c1cccs1)N1CCN(c2cccc(Cl)c2)CC1	inactive

Now consider a different compound.
INPUT: Which outcome was entered for the compound CSc1ccc2c(c1)c(CCN)c(C)n2Cc1ccc(Cl)c(Cl)c1 in this test?
OUTPUT: active
